Tested on: NCI-H2347
ASSAY_COMMENT: relative viability (nuclei count vs DMSO), 5 days (fraction); higher = more cells survive
APPLIED_CONDITIONS: first compound 8 µM
PROPERTY_MEASURED: relative viability
Respond numerically, and do not add a unit to the figure.

Worked set:
1) O=c1[nH]c2ccccc2n1C1CCN(CCCC(c2ccc(F)cc2)c2ccc(F)cc2)CC1 [Pimozide] + CC(=O)Nc1cccc(-n2c(=O)n(C3CC3)c(=O)c3c(Nc4ccc(I)cc4F)n(C)c(=O)c(C)c32)c1 [Trametinib] (partner 0.02 µM)
0.285
2) O=c1[nH]c2ccccc2n1C1CCN(CCCC(c2ccc(F)cc2)c2ccc(F)cc2)CC1 [Pimozide] + O=C(c1cc(Cc2n[nH]c(=O)c3ccccc23)ccc1F)N1CCN(C(=O)C2CC2)CC1 [Olaparib] (partner 8 µM)
0.587
3) O=c1[nH]c2ccccc2n1C1CCN(CCCC(c2ccc(F)cc2)c2ccc(F)cc2)CC1 [Pimozide] + COc1cc2c(Oc3ccc(NC(=O)C4(C(=O)Nc5ccc(F)cc5)CC4)cc3F)ccnc2cc1OCCCN1CCOCC1 [Foretinib] (partner 0.25 µM)
1.07
4) O=c1[nH]c2ccccc2n1C1CCN(CCCC(c2ccc(F)cc2)c2ccc(F)cc2)CC1 [Pimozide] + NC(=O)Nc1cc(-c2cccc(F)c2)sc1C(=O)N[C@H]1CCCNC1 [AZD7762] (partner 0.2 µM)
0.744
5) O=c1[nH]c2ccccc2n1C1CCN(CCCC(c2ccc(F)cc2)c2ccc(F)cc2)CC1 [Pimozide] + CC1(C)CCC(c2ccc(Cl)cc2)=C(CN2CCN(c3ccc(C(=O)NS(=O)(=O)c4ccc(N[C@H](CCN5CCOCC5)CSc5ccccc5)c(S(=O)(=O)C(F)(F)F)c4)cc3)CC2)C1 [Navitoclax] (partner 0.5 µM)
0.819

### Prompt Quote relative viability reported for O=c1[nH]c2ccccc2n1C1CCN(CCCC(c2ccc(F)cc2)c2ccc(F)cc2)CC1 [Pimozide] + CC(=O)c1c(C)c2cnc(Nc3ccc(N4CCNCC4)cn3)nc2n(C2CCCC2)c1=O [Palbociclib] (partner 0.5 µM) please.
### Response 0.407

### Prompt Quote relative viability reported for O=c1[nH]c2ccccc2n1C1CCN(CCCC(c2ccc(F)cc2)c2ccc(F)cc2)CC1 [Pimozide] + N=C(N)NC(=N)NCCc1ccccc1 [Phenformin] (partner 250 µM) please.
### Response 0.269

### Prompt Quote relative viability reported for O=c1[nH]c2ccccc2n1C1CCN(CCCC(c2ccc(F)cc2)c2ccc(F)cc2)CC1 [Pimozide] + CS(=O)(=O)CCNCc1ccc(-c2ccc3ncnc(Nc4ccc(OCc5cccc(F)c5)c(Cl)c4)c3c2)o1 [Lapatinib] (partner 2 µM) please.
### Response 0.978

Source of measurements: the supplement of paper PMC10307832
